protocol_text: chemical genetic growth profiling, strain panel (AID 1159580);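 also: tested at 20 µM; growth read once vehicle control cultures reached saturation at 30 °C; 1 = growth at the plate median or of vehicle wells; lower values mean less growth of the strain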
test_context: S. cerevisiae deletion strains, growth OD, locus YPL241C, strain CIN2
The whole screen tested about 5,500 compounds, of which about 2,000 (36%) were called active. About 18% were inconclusive and are not listed. Rule as the data show it: active = normalized growth mostly below about 0.91 (no sharp cut-off); inconclusive = no clear call, values can overlap the other calls; inactive = mostly above about 0.92. The list shows a part of the results.
One label from this list, please: yes (1) (active), no (0) (inactive)

Exercise: // return assay outcome for CCC(C)C(=O)c1c(O)c(C)c2oc3c(C)c(O)c(C(=O)C(C)CC)c(O)c3c2c1O (stereo unspecified)
Solution: no (0)

Exercise: // return assay outcome for N[C@H](C(=O)O)[C@H](O)C(=O)O
Solution: no (0)

Exercise: // return assay outcome for CC(=O)OC1CC(OC(C)=O)C2(C)C(CC(OC(C)=O)C3(C)C2CCC2(C)C(c4ccoc4)OC(=O)C4OC423)C1(C)C (stereo unspecified)
Solution: no (0)

Exercise: // return assay outcome for CC(=O)O[C@@H]1CC2C(C)(C)[C@H](O)CC[C@]2(C)C2CC[C@@]3(C)[C@H](c4ccoc4)OC(=O)[C@H]4O[C@]43[C@@]21C (stereo partly specified)
Solution: no (0)

Exercise: // return assay outcome for CC(C)(S)[C@@H](N)C(=O)O
Solution: no (0)

Exercise: // return assay outcome for c1ccc(CN2CCC3(CCCc4ccccc43)CC2)cc1
Solution: no (0)

Exercise: // return assay outcome for Cc1nnc(NS(=O)(=O)c2ccc(N)cc2)s1
Solution: no (0)

Exercise: // return assay outcome for Clc1ccc(COC(Cn2ccnc2)c2ccc(Cl)cc2Cl)c(Cl)c1 (stereo unspecified)
Solution: yes (1)

Exercise: // return assay outcome for COP(=S)(OC)Oc1ccc([N+](=O)[O-])cc1
Solution: no (0)

Exercise: // return assay outcome for NNC(=O)c1cnn(-c2ccc(Cl)cc2)c1C(F)(F)F
Solution: no (0)

Exercise: // return assay outcome for O=S(=O)(NCc1ccc(F)cc1F)c1cccc(C(F)(F)F)c1
Solution: no (0)

Exercise: // return assay outcome for O=C(O)C(O)C(O)C(=O)O (stereo unspecified)
Solution: yes (1)

Exercise: // return assay outcome for C[C@]12CC[C@@H]3c4ccc(O)cc4CC[C@H]3[C@@H]1CCC2=O
Solution: no (0)

Exercise: // return assay outcome for C[C@@H](Oc1ccc(Oc2cnc3ccc(Cl)cc3n2)cc1)C(=O)O
Solution: no (0)

Exercise: // return assay outcome for O=S(=O)(c1ccc(Cl)cc1)c1cc(C(F)(F)F)cc(C(F)(F)F)c1
Solution: no (0)

Exercise: // return assay outcome for COc1ccccc1N1CCN(CCN2C(=O)CC3(CCCC3)CC2=O)CC1
Solution: no (0)

Exercise: // return assay outcome for OCc1nccn1Cc1ccc(Cl)cc1
Solution: no (0)

Exercise: // return assay outcome for CCCCCCCCCCCCCC(=O)OC1C(C)C2(O)C(C=C(CO)CC3(O)C(=O)C(C)=CC32)C2C(C)(C)C12OC(C)=O (stereo unspecified)
Solution: no (0)

Exercise: // return assay outcome for Clc1ccc(COC(Cn2ccnc2)c2ccc(Cl)cc2Cl)cc1 (stereo unspecified)
Solution: yes (1)

Exercise: // return assay outcome for C=NC(C(=O)NC1C(=O)N2C1SC(C)(C)C2C(=O)O)c1ccccc1 (stereo unspecified)
Solution: no (0)

Exercise: // return assay outcome for CC(C)(C)NC(=S)NC1CCN(Cc2ccccc2)CC1
Solution: no (0)
